Organism: Rattus norvegicus
assay_procedure: Open TG-GATES - Regimen: Daily Repeat
Format: toxicity, organism-based, Sprague-Dawley
Design: regimen Daily Repeat, gender Male, age 6 weeks
condition_details: in vivo, po, 10 mg/kg, […], tissue Plasma, route gavage, dose level Low, time 28 day
measured_parameter: TC (mg/dL)
Please respond with the number in mg/dL and leave the unit unwritten.

Guide cases for TC, answers given:
compound: CN(C)CCCN1c2ccccc2CCc2ccccc21
numeric_result: 64.2
--
compound: CC(C)OC(=O)C(C)(C)Oc1ccc(C(=O)c2ccc(Cl)cc2)cc1 [FENOFIBRATE]
numeric_result: 64.6
--
compound: CC1=C(/C=C/C(C)=C/C=C/C(C)=C/CO)C(C)(C)CCC1
numeric_result: 67.8

Exam item: If you can, please state the reported TC value of CN(C)CCN(Cc1cccs1)c1ccccn1 .
Marked response: 72.4

---

Species: Rattus norvegicus
assay_procedure: Open TG-GATES - Regimen: Single
Assay type: toxicity, organism-based, Sprague-Dawley
Parameters: regimen Single, gender Male, age 6 weeks
condition_details: in vivo, po, 100 mg/kg, 9 h, tissue Plasma, route gavage, dose level Low
measured_parameter: Ca (mg/dL)
Please respond with the number in mg/dL and leave the unit unwritten.

Guide cases for Ca, answers given:
molecule: COC1=CC(=O)C[C@@H](C)[C@]12Oc1c(Cl)c(OC)cc(OC)c1C2=O [GRISEOFULVIN]
Ca / mg/dL: 10.4

molecule: CCOC(=O)CCC(=O)O[C@H]1[C@H](O[C@@H]2[C@@H](C)[C@H](O[C@H]3C[C@@](C)(OC)[C@@H](O)[C@H](C)O3)[C@@H](C)C(=O)O[C@H](CC)[C@@](C)(O)[C@H](O)[C@@H](C)C(=O)[C@H](C)C[C@@]2(C)O)O[C@H](C)C[C@@H]1N(C)C [ERYTHROMYCIN ETHYLSUCCINATE]
Ca / mg/dL: 10.6

molecule: NC(N)=Nc1nc(CSCCC(N)=NS(N)(=O)=O)cs1 [FAMOTIDINE]
Ca / mg/dL: 10.5

Proceed to the following item.
Exam item: If you can, please state the reported Ca value of COc1ccc2[nH]c([S+]([O-])Cc3ncc(C)c(OC)c3C)nc2c1 (centres undefined) [OMEPRAZOLE] .
Marked response: 10.3

---

Species: Rattus norvegicus
assay_procedure: Open TG-GATES - Regimen: Single
Format: toxicity, organism-based, Sprague-Dawley
Set-up: regimen Single, gender Male, age 6 weeks
condition_details: in vivo, po, 0 mg/kg, 9 h, tissue Blood, route gavage, dose level Control
measured_parameter: Ret (%)
Please respond with the number in % and leave the unit unwritten.

molecule: CC1=C(/C=C/C(C)=C/C=C/C(C)=C/CO)C(C)(C)CCC1 [RETINOL]
numeric_result: 7.9

molecule: CN1C(=O)CN=C(c2ccccc2)c2cc(Cl)ccc21 [DIAZEPAM]
numeric_result: 8.2

Exam item: If you can, please state the reported Ret value of Cc1ccc(C)c(OCCCC(C)(C)C(=O)O)c1 [GEMFIBROZIL] .
Marked response: 7.6

Exam item: And what about the molecule CN(C)CCCN1c2ccccc2CCc2ccccc21 [IMIPRAMINE] ?
Marked response: 8.2

Exam item: And what about the molecule CCOc1ccc(NC(=O)CC(C)O)cc1 (stereo not given) [BUCETIN] ?
Marked response: 8.1

Exam item: And what about the molecule CN(C)CCCN1c2ccccc2CCc2ccc(Cl)cc21 [CLOMIPRAMINE] ?
Marked response: 8.1

Exam item: And what about the molecule CC(C)OC(=O)C(C)(C)Oc1ccc(C(=O)c2ccc(Cl)cc2)cc1 [FENOFIBRATE] ?
Marked response: 9.6
